# Tested on: HMLE_sh_eGFP viability, CellTiter-Glo luminescence, 72 h
# Experimental Details: cytotoxicity in HMLE control line with eGFP shRNA, dose response, counter-screen for HMLE_sh_ECad selective toxicity project, cell-based, HMLE_sh_eGFP, luminescence (AID 463074);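 also: counterscreen control line to flag general toxicity for the HMLE_sh_ECad screen; potency for loss of viability as luminescence drops below DMSO wells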
Calls of active or inactive are those of the source.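 The calls were made as follows: active = AC50 no more than tenfold above the top dose tested, or full inhibition at every dose with a flat fit (cut at about 19 µM in these data); inconclusive = flat curve fit with inhibition between 30% and 70%, or poor fit; inactive = AC50 more than tenfold above the top dose tested.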
Your reply should match one of these outcome classes. active, inactive

Solved cases (5 shown):
- Compound: "CC(C)c1ccc(/C=N/NC(=O)c2ccccn2)cc1"
  Target Entity: "HMLE_sh_eGFP viability, CellTiter-Glo luminescence, 72 h"
  Assigned Label: "inactive"
- Compound: "C[C@H](CO)N1C[C@H](C)[C@@H](CN(C)C(=O)Nc2ccc(C(F)(F)F)cc2)Oc2c(NC(=O)Nc3ccc(C(F)(F)F)cc3)cccc2C1=O"
  Target Entity: "HMLE_sh_eGFP viability, CellTiter-Glo luminescence, 72 h"
  Assigned Label: "active"
- Compound: "Cc1cc(OCC(=O)Nc2ccc(S(=O)(=O)NC3=NCCCCC3)cc2)c(C(C)C)cc1Cl"
  Target Entity: "HMLE_sh_eGFP viability, CellTiter-Glo luminescence, 72 h"
  Assigned Label: "active"
- Compound: "Oc1ccc(/C=N/Nc2ncc(Br)cn2)c(O)c1"
  Target Entity: "HMLE_sh_eGFP viability, CellTiter-Glo luminescence, 72 h"
  Assigned Label: "active"
- Compound: "Nc1nc(Nc2ccccc2)nc(NC2CCCCC2)c1[N+](=O)[O-]"
  Target Entity: "HMLE_sh_eGFP viability, CellTiter-Glo luminescence, 72 h"
  Assigned Label: "active"

Hey, what did the test say about `CCOC(=O)c1c(C)oc2c1C(=O)c1ccccc1C2=O` ?
active

====

# Tested on: HMLE_sh_eGFP viability, CellTiter-Glo luminescence, 72 h
# Experimental Details: cytotoxicity in HMLE control line with eGFP shRNA, dose response, counter-screen for HMLE_sh_ECad selective toxicity project, cell-based, HMLE_sh_eGFP, luminescence (AID 463074);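 also: counterscreen control line to flag general toxicity for the HMLE_sh_ECad screen; potency for loss of viability as luminescence drops below DMSO wells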;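 active = AC50 no more than tenfold above the top dose tested, or full inhibition at every dose with a flat fit (cut at about 19 µM in these data); inconclusive = flat curve fit with inhibition between 30% and 70%, or poor fit; inactive = AC50 more than tenfold above the top dose tested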
Your reply should match one of these outcome classes. T for active, F for inactive

Solved cases (8 shown):
- Compound: "C[C@@H]1O[C@@H](O[C@@H]2C=C3CC[C@@H]4C(CC[C@]5(C)[C@@H](c6ccc(=O)oc6)CC[C@]45O)[C@@]3(C)CC2)[C@H](O)[C@H](O)[C@H]1O (stereo partly specified)"
  Assigned Label: "T"
- Compound: "CCC1=Nc2cc(C(=O)NCc3cccnc3)ccc2Sc2ccc(C)cc21"
  Assigned Label: "T"
- Compound: "Cn1c(N)c(C(=O)COC(=O)c2ccccc2C(=O)c2ccc(Cl)c([N+](=O)[O-])c2)c(=O)n(C)c1=O"
  Assigned Label: "T"
- Compound: "COc1ccc(NC(=O)c2ccc(COc3ccccc3Br)o2)c(OC)c1"
  Assigned Label: "T"
- Compound: "CC1=NN(c2nc(-c3ccc(Cl)cc3)cs2)C(=O)C1"
  Assigned Label: "T"
- Compound: "C=C(C)COc1ccc(-c2[nH]ncc2Oc2ccc(OC)cc2)c(O)c1"
  Assigned Label: "T"
- Compound: "CC(C)(C)c1cc(Cl)ccc1OCCOCCN1CCCC1"
  Assigned Label: "T"
- Compound: "COc1cc(CNCCc2c[nH]c3ccccc23)ccc1OCc1ccccc1F"
  Assigned Label: "T"

Hey, what did the test say about `Clc1ccc(Nc2ncnc3ccc(Br)cc23)cc1` ?
T

Hey, what did the test say about `C=C[C@@H]1c2cccc(C)c2N(S(=O)(=O)c2ccc(C)cc2)[C@H](c2ccc(OC(C)=O)cc2)C1(C#N)C#N` ?
T
